Assay: Binding affinity to Escherichia coli MurF by HTS assay in presence of ATP
I'd be grateful if you could share measured pKd for these entries.
Quick note: pKd means taking -log10 of the concentration in moles per liter.

Prompt: Determine from records and report pKd for COc1cccc(C(=O)NC(/C=C/c2ccccc2)c2cc(Cl)c3cccnc3c2O)c1 (stereo not given)
Completion: 5.00

Prompt: Return reported pKd. Input compound: COc1ccc(C(NC(=O)c2cccc(OC)c2)c2cc(Cl)c3cccnc3c2O)cc1 (stereo not given)
Completion: 4.96

Prompt: Complete the entry with pKd for Cc1ccc(C(NC(=O)c2ccccc2)c2ccc3cccnc3c2O)cc1 (stereo not given)
Completion: 4.70

Prompt: Supply measured pKd of COc1cccc(C(=O)NC(c2ccc3c(c2)OCO3)c2cc(Cl)c3cccnc3c2O)c1 (stereo not given) in your reply.
Completion: 5.35

Prompt: Quick one: give measured pKd for O=C(NC(c1ccccc1F)c1ccc2cccnc2c1O)c1ccccc1 (stereo not given)
Completion: 4.70

====

Test system: Escherichia coli
Test: Binding affinity to Escherichia coli MurF assessed as increase in enzyme melting temperature by thermofluor analysis in presence of ATP
Param threshold (2 °C) applies to ΔTm; output rule met when value >= threshold, rule not met when value < threshold.

Prompt: Answer whether ΔTm of COc1ccc(C(NC(=O)c2cccc(OC)c2)c2cc(Cl)c3cccnc3c2O)cc1 (centres undefined) is greater than or equal to 2 °C.
Completion: rule not met

Prompt: Is the recorded value of ΔTm equal to or greater than 2 °C for this molecule? COc1ccc(C(NC(=O)c2ccccc2)c2ccc3cccnc3c2O)cc1OC (centres undefined)
Completion: rule met

Prompt: ΔTm >= 2 °C for COc1cccc(C(=O)NC(c2ccc3c(c2)OCO3)c2cc(Cl)c3cccnc3c2O)c1 (centres undefined) ?
Completion: rule not met

Prompt: Quick check: does COc1cccc(C(=O)NC(c2ccccc2OC)c2cc(Cl)c3cccnc3c2O)c1 (centres undefined) have ΔTm greater than or equal to 2 °C?
Completion: rule met

Prompt: API: above_or_equal(metric=ΔTm, cutoff=2 °C) for item COc1ccc(C(=O)NC(c2ccc(OC)c(OC)c2)c2cc(Cl)c3cccnc3c2O)cc1 (centres undefined)
Completion: rule not met

Prompt: hey, is ΔTm for this one >= 2 °C? O=C(NC(c1ccc2c(c1)OCO2)c1ccc2cccnc2c1O)c1ccccc1 (centres undefined)
Completion: rule not met

Prompt: Determine whether this molecule has ΔTm no lower than 2 °C: Cc1ccc(C(NC(=O)c2ccccc2)c2ccc3cccnc3c2O)cc1 (centres undefined)
Completion: rule met

Prompt: In plain terms: is recorded ΔTm at least 2 °C for O=C(NC(c1ccccc1F)c1ccc2cccnc2c1O)c1ccccc1 (centres undefined) ?
Completion: rule met

Prompt: Threshold query (ΔTm >= 2 °C) on COc1cccc(C(=O)NC(/C=C/c2ccccc2)c2cc(Cl)c3cccnc3c2O)c1 (centres undefined)
Completion: rule not met

====

Test: Binding affinity to Escherichia coli MurF by HTS assay in absence of ATP
MEASURED ATTRIBUTE: Kd (µM)
Provide the reading as a plain figure in µM.

Prompt: Check the records and state Kd for O=C(NC(c1ccc2c(c1)OCO2)c1ccc2cccnc2c1O)c1ccccc1 (stereo not drawn)
Completion: 50

Prompt: Read the entry COc1cccc(C(=O)NC(c2ccccc2OC)c2cc(Cl)c3cccnc3c2O)c1 (stereo not drawn) and write its reported Kd.
Completion: 10

Prompt: State, in one line, measured Kd of COc1cccc(C(=O)NC(/C=C/c2ccccc2)c2cc(Cl)c3cccnc3c2O)c1 (stereo not drawn)
Completion: 3.3

Prompt: Could you please provide reported Kd for O=C(NC(c1ccccc1F)c1ccc2cccnc2c1O)c1ccccc1 (stereo not drawn) ? Thanks!
Completion: 20

Prompt: In one line, give reported Kd of the entry COc1cccc(C(=O)NC(c2ccc3c(c2)OCO3)c2cc(Cl)c3cccnc3c2O)c1 (stereo not drawn) .
Completion: 3.3

Prompt: Indicate the recorded Kd value for this compound: Cc1ccc(C(NC(=O)c2ccccc2)c2ccc3cccnc3c2O)cc1 (stereo not drawn)
Completion: 33

Prompt: Provide only the value of recorded Kd for COc1ccc(C(NC(=O)c2ccccc2)c2ccc3cccnc3c2O)cc1OC (stereo not drawn)
Completion: 100

Prompt: Using the record for COc1ccc(C(NC(=O)c2cccc(OC)c2)c2cc(Cl)c3cccnc3c2O)cc1 (stereo not drawn) , state its measured Kd.
Completion: 2.5

// provenance: ChEMBL document CHEMBL1152456
